Values compiled from patent US20190225675A1.

- target_under_test: T1, Botulinum neurotoxin serotype A1 (BoNT/A) holotoxin (Clostridium botulinum, UniProt P0DPI0 2-1296)
- T1 construct: mature
- protocol_notes: VHH selection; binding competition
measured_metric: binding result

JDO-E9 (VHH) VHH: QVQLVESGGGLVRPGGSLRLSCVVSGFAYEMPMMGWYRQAPGNQRELVATIGTGGRMNYADSVKGRFTISRDNAKNTVYLQMNSLKPEDTAAYYCKIEFTNYWGQGTQVTVSS; binds
JDQ-C5 (VHH) VHH: QVQLVESGGGLVQPGGSLRLSCTVSGSIFGLPGMSWYRQAPGAQRELVADISSDGGRTHYADSVKGRFTISRDNDKKTVYLQMDSLKPDDTAVYYCNVKFTHHWGQGIQVTVSS; binds
JDQ-F9 (VHH) VHH: QVQLVESGGGLVQDGGSLRLSCTTSGSIDSFNAIEWYRQAPGKQRELVASISSDGRRTNYADSVKGRFTISGDNAKNTVYLQMNSLKPEDTAVYYCHRPFTHYWGQGTQVTVSS; binds
JDQ-B2 (VHH) VHH: QVQLVESGGGLVQPGGSLRLSCTVSGSIFDLPGMNWYRQAPGAQRELVADISSDGRRTNYADSVKGRFTMSRDNAKKTVYLQMDSLKPDDTAVYYCNVKFTHHWGQGIQVTVSS; binds
